- testName: Dark toxicity in human HeLa cells assessed as reduction in cell viability after 48 hrs by MTT assay
- Assay type: cell-based
recordedEndpoint: IC50

// below: answered compounds
[
  {
    "molecularString": "CC(C)(C)n1c2cc(-c3ccc(N(c4ccccc4)c4ccccc4)cc3)sc2c2sc(-c3ccc(/C=C4\\SC(=S)N(CC(=O)O)C4=O)s3)cc21",
    "IC50": "60.2 µM"
  },
  {
    "molecularString": "COc1ccc(-c2cc3c(s2)c2sc(-c4ccc(C=O)s4)cc2n3C(C)(C)C)cc1",
    "IC50": "68.6 µM"
  },
  {
    "molecularString": "CN(C)c1ccc(-c2cc3c(s2)c2sc(-c4ccc(/C=C5\\SC(=S)N(CC(=O)O)C5=O)s4)cc2n3C(C)(C)C)cc1",
    "IC50": "> 100 µM"
  }
]

The reported value for `COc1ccc(-c2cc3c(s2)c2sc(-c4ccc(/C=C5\SC(=S)N(CC(=O)O)C5=O)s4)cc2n3C(C)(C)C)cc1` in terms of IC50 is 63.9 µM

###

- testName: Dark toxicity in HEK293 cells assessed as inhibition of cell viability at 10 uM measured after 48 hrs by MTT assay relative to control
- Assay type: cell-based
- conditions: human, read-out: INH
recordedEndpoint: cytotoxicity at 48 h, 10 µM (%)
Expressed in %, but write only the number.

[
  {
    "molecularString": "COc1ccc(-c2cc3c(s2)c2sc(-c4ccc(/C=C(\\C#N)C(=O)O)s4)cc2n3C(C)(C)C)cc1",
    "resultUnits": "%",
    "cytotoxicity at 48 h, 10 µM": 7
  }
]

Now let's try a different one.
The reported value for `N#C/C(=C\c1ccc(-c2ccc(-c3ccc(N(c4ccccc4)c4ccccc4)cc3)s2)s1)C(=O)O` in terms of cytotoxicity at 48 h, 10 µM is 32

###

- Test system: HeLa
- testName: Phototoxicity in human HeLa cells assessed as reduction in cell viability preincubated for 1 hr followed by LED light irradiation for 15 mins measured after 48 hrs by MTT assay
- Format: functional, cell-based
- conditions: light or radiation study
recordedEndpoint: pIC50
Note on pIC50: it is the negative log10 of concentration, concentration in mol/L.

// below: answered compounds
[
  {
    "molecularString": "C=CC1=C(C)c2cc3[nH]c(cc4nc(cc5[nH]c(cc1n2)c(C)c5C=C)C(C)=C4CCC(=O)O)c(CCC(=O)O)c3C",
    "recordedEndpoint": "pIC50",
    "value": 6.12
  },
  {
    "molecularString": "COc1ccc(-c2cc3c(s2)c2sc(-c4ccc(/C=C5\\SC(=S)N(CC(=O)O)C5=O)s4)cc2n3C(C)(C)C)cc1",
    "recordedEndpoint": "pIC50",
    "value": 5.24
  },
  {
    "molecularString": "COc1ccc(-c2cc3c(s2)c2sc(-c4ccc(/C=C5\\C(=O)N(CCO)C(=O)C(C#N)=C5C)s4)cc2n3C(C)(C)C)cc1",
    "recordedEndpoint": "pIC50",
    "value": 4.80
  },
  {
    "molecularString": "COc1ccc(-c2cc3c(s2)c2sc(-c4ccc(C=O)s4)cc2n3C(C)(C)C)cc1",
    "recordedEndpoint": "pIC50",
    "value": 5.42
  },
  {
    "molecularString": "CCCCN1C(=O)C(=C/C=C/C=C2\\Oc3ccccc3N2CCCS(=O)(=O)O)C(=O)N(CCCC)C1=S",
    "recordedEndpoint": "pIC50",
    "value": 4.80
  },
  {
    "molecularString": "CN(C)c1ccc(-c2cc3c(s2)c2sc(-c4ccc(/C=C(\\C#N)C(N)=O)s4)cc2n3C(C)(C)C)cc1",
    "recordedEndpoint": "pIC50",
    "value": 5.30
  }
]

The reported value for `COc1ccc(-c2cc3c(s2)c2sc(-c4ccc(/C=C(\C#N)C(N)=O)s4)cc2n3C(C)(C)C)cc1` in terms of pIC50 is 6.25

The reported value for `N#C/C(=C\c1ccc(-c2ccc(-c3ccc(N(c4ccccc4)c4ccccc4)cc3)s2)s1)C(=O)O` in terms of pIC50 is 6.68

The reported value for `CN(C)c1ccc(-c2cc3c(s2)c2sc(-c4ccc(/C=C(\C#N)C(=O)O)s4)cc2n3C(C)(C)C)cc1` in terms of pIC50 is 6.22

The reported value for `CC(C)(C)n1c2cc(-c3ccc(N(c4ccccc4)c4ccccc4)cc3)sc2c2sc(-c3ccc(C=O)s3)cc21` in terms of pIC50 is 4.35

###

Item-by-item account of IC50
- testName: Dark toxicity in human HeLa cells assessed as reduction in cell viability after 48 hrs by MTT assay
- Format: cell-based
Expressed in µM, but write only the number.

// below: answered compounds
[
  {
    "molecularString": "COc1ccc(-c2cc3c(s2)c2sc(-c4ccc(/C=C(\\C#N)C(N)=O)s4)cc2n3C(C)(C)C)cc1",
    "IC50 / µM": 15.7
  },
  {
    "molecularString": "COc1ccc(-c2cc3c(s2)c2sc(-c4ccc(/C=C(\\C#N)C(=O)O)s4)cc2n3C(C)(C)C)cc1",
    "IC50 / µM": 43.4
  },
  {
    "molecularString": "CN(C)c1ccc(-c2cc3c(s2)c2sc(-c4ccc(/C=C(\\C#N)C(N)=O)s4)cc2n3C(C)(C)C)cc1",
    "IC50 / µM": 54
  }
]

Now let's try a different one.
The reported value for `C=CC1=C(C)c2cc3[nH]c(cc4nc(cc5[nH]c(cc1n2)c(C)c5C=C)C(C)=C4CCC(=O)O)c(CCC(=O)O)c3C` in terms of IC50 is 12.5

###

- testName: Dark toxicity in human HeLa cells assessed as reduction in cell viability after 48 hrs by MTT assay
- Assay type: cell-based
recordedEndpoint: IC50 (µM)
Expressed in µM, but write only the number.

[
  {
    "molecularString": "N#C/C(=C\\c1ccc(-c2ccc(-c3ccc(N(c4ccccc4)c4ccccc4)cc3)s2)s1)C(=O)O",
    "IC50 (µM)": 21.9
  },
  {
    "molecularString": "COc1ccc(-c2cc3c(s2)c2sc(-c4ccc(/C=C5\\C(=O)N(CCO)C(=O)C(C#N)=C5C)s4)cc2n3C(C)(C)C)cc1",
    "IC50 (µM)": 60
  },
  {
    "molecularString": "CN(C)c1ccc(-c2cc3c(s2)c2sc(-c4ccc(/C=C(\\C#N)C(=O)O)s4)cc2n3C(C)(C)C)cc1",
    "IC50 (µM)": 15.5
  }
]

The reported value for `CC(C)(C)n1c2cc(-c3ccc(N(c4ccccc4)c4ccccc4)cc3)sc2c2sc(-c3ccc(C=O)s3)cc21` in terms of IC50 is 67

###

- testName: Dark toxicity in human HeLa cells assessed as reduction in cell viability after 48 hrs by MTT assay
- Assay type: cell-based
recordedEndpoint: IC50

// below: answered compounds
[
  {
    "molecularString": "CN(C)c1ccc(-c2cc3c(s2)c2sc(-c4ccc(C=O)s4)cc2n3C(C)(C)C)cc1",
    "value": "> 10 µM"
  },
  {
    "molecularString": "CC(C)(C)n1c2cc(-c3ccc(N(c4ccccc4)c4ccccc4)cc3)sc2c2sc(-c3ccc(/C=C(\\C#N)C(=O)O)s3)cc21",
    "value": "> 100 µM"
  },
  {
    "molecularString": "CC(C)(C)n1c2cc(-c3ccc(N(c4ccccc4)c4ccccc4)cc3)sc2c2sc(-c3ccc(/C=C(\\C#N)C(N)=O)s3)cc21",
    "value": "> 100 µM"
  }
]

Now let's try a different one.
The reported value for `CCCCN1C(=O)C(=C/C=C/C=C2\Oc3ccccc3N2CCCS(=O)(=O)O)C(=O)N(CCCC)C1=S` in terms of IC50 is > 100 µM
